meta.source: the kinase profiling compilation of Christmann-Franck et al. (2016)

targetOfAssay: CDC2L2 (human)
procedureSummary: KINOMEscan competition binding
statedConditions: compound 10.0 µM
outcomeMeasure: kinase still bound, per cent of control
Write down the value, and be sure its unit follows.

Entry under test: COCC(=O)NC/C=C/c1ccc2ncnc(Nc3ccc(Oc4ccc(C)nc4)c(C)c3)c2c1 . Its kinase still bound, per cent of control was 100%

Entry under test: COc1cc(C(=O)N2CCC(N3CCN(C)CC3)CC2)ccc1Nc1ncc2c(n1)N(C)c1ccccc1C(=O)N2C . Its kinase still bound, per cent of control was 82%

Entry under test: C=CC(=O)Nc1ccc(CN(C(=O)Nc2c(Cl)c(OC)cc(OC)c2Cl)c2cc(Nc3ccc(N4CCN(C)CC4)cc3)ncn2)cc1 . Its kinase still bound, per cent of control was 100%

Entry under test: O=C(Nc1cccc(Nc2ncc(Br)c(NCCc3cnc[nH]3)n2)c1)N1CCCC1 . Its kinase still bound, per cent of control was 52%

Entry under test: NC(=O)Nc1cc(-c2cccc(F)c2)sc1C(=O)N[C@@H]1CCCNC1 . Its kinase still bound, per cent of control was 100%

Entry under test: O=c1cc(N2CCOCC2)oc2c(-c3cccc4c3sc3ccccc34)cccc12 . Its kinase still bound, per cent of control was 100%

Entry under test: CCN(CC)CCCCNc1ncc2cc(-c3cc(OC)cc(OC)c3)c(NC(=O)NC(C)(C)C)nc2n1 . Its kinase still bound, per cent of control was 100%

Entry under test: CN(C)C/C=C/C(=O)Nc1ccc(C(=O)Nc2cccc(Nc3nccc(-c4cccnc4)n3)c2)cc1 . Its kinase still bound, per cent of control was 100%

Entry under test: CCN(CC)CCCCNc1ncc2c(n1)N(C)C(=O)N(c1c(Cl)c(OC)cc(OC)c1Cl)C2 . Its kinase still bound, per cent of control was 26%

Entry under test: C=CC(=O)Nc1cc(-n2c(=O)ccc3cnc4ccc(-c5cn[nH]c5)cc4c32)ccc1C . Its kinase still bound, per cent of control was 100%

Entry under test: COc1cc2ncn(-c3cc(OCc4ccccc4C(F)(F)F)c(C(N)=O)s3)c2cc1OC . Its kinase still bound, per cent of control was 99%

Entry under test: CNC(=O)c1cc(Oc2ccc(NC(=O)Nc3ccc(Cl)c(C(F)(F)F)c3)cc2)ccn1 . Its kinase still bound, per cent of control was 85%

Entry under test: C[C@@H](Oc1cc(-c2cnn(C3CCNCC3)c2)cnc1N)c1c(Cl)ccc(F)c1Cl . Its kinase still bound, per cent of control was 0.35%

###

Would you mind telling me the reported kinase still bound, per cent of control of each entry?
targetOfAssay: PAK2 (human) (UniProt Q13177)
Sequence (Q13177 whole entry, looked up): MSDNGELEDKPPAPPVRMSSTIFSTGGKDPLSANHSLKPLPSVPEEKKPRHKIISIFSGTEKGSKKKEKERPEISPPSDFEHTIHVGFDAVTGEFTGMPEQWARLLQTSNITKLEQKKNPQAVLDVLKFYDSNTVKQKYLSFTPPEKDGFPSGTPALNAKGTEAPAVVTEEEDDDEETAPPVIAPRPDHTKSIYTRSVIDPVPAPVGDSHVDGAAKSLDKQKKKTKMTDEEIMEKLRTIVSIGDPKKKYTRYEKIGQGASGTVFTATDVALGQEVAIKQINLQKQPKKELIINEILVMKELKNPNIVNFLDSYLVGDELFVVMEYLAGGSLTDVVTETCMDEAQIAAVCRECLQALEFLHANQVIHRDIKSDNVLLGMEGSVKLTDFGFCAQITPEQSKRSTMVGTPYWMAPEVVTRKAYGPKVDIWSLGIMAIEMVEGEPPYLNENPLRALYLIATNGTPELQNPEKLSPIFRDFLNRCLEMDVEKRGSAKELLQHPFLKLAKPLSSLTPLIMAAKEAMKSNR
procedureSummary: KINOMEscan competition binding
statedConditions: compound 10.0 µM
Unit % implied. Number only.

Entry under test: N#CCNC(=O)c1ccc(-c2ccnc(Nc3ccc(N4CCOCC4)cc3)n2)cc1 . Its kinase still bound, per cent of control was 100

Entry under test: NC(=O)Nc1cc(-c2cccc(F)c2)sc1C(=O)N[C@@H]1CCCNC1 . Its kinase still bound, per cent of control was 16

Entry under test: Cc1n[nH]c2ccc(-c3cncc(OC[C@@H](N)Cc4c[nH]c5ccccc45)c3)cc12 . Its kinase still bound, per cent of control was 4.6

Entry under test: COc1cc(N2CCN(C)CC2)ccc1Nc1ncc2c(n1)N(C)c1ccccc1C(=O)N2C . Its kinase still bound, per cent of control was 100

Entry under test: CS(=O)(=O)N1CCN(Cc2cc3nc(-c4cccc5[nH]ncc45)nc(N4CCOCC4)c3s2)CC1 . Its kinase still bound, per cent of control was 100

Entry under test: O=C(Nc1cccc(Nc2ncc(Br)c(NCCc3cnc[nH]3)n2)c1)N1CCCC1 . Its kinase still bound, per cent of control was 45

Entry under test: C=CC(=O)Nc1ccc(CN(C(=O)Nc2c(Cl)c(OC)cc(OC)c2Cl)c2cc(Nc3ccc(N4CCN(C)CC4)cc3)ncn2)cc1 . Its kinase still bound, per cent of control was 100

Entry under test: CCN(CC)CCCCNc1ncc2c(n1)N(C)C(=O)N(c1c(Cl)c(OC)cc(OC)c1Cl)C2 . Its kinase still bound, per cent of control was 100

Entry under test: CCN(CC)CCCCNc1ncc2cc(-c3cc(OC)cc(OC)c3)c(NC(=O)NC(C)(C)C)nc2n1 . Its kinase still bound, per cent of control was 100

###

targetOfAssay: OXSR1 (human)
procedureSummary: KINOMEscan competition binding
statedConditions: compound 10.0 µM
outcomeMeasure: kinase still bound, per cent of control (%)
Unit % implied. Number only.

Entry under test: O=C(Nc1cccc(Nc2ncc(Br)c(NCCc3cnc[nH]3)n2)c1)N1CCCC1 . Its kinase still bound, per cent of control was 25

Entry under test: O=c1cc(N2CCOCC2)oc2c(-c3cccc4c3sc3ccccc34)cccc12 . Its kinase still bound, per cent of control was 100

Entry under test: C=CC(=O)Nc1cc(-n2c(=O)ccc3cnc4ccc(-c5cn[nH]c5)cc4c32)ccc1C . Its kinase still bound, per cent of control was 79

Entry under test: N#CCNC(=O)c1ccc(-c2ccnc(Nc3ccc(N4CCOCC4)cc3)n2)cc1 . Its kinase still bound, per cent of control was 58

Entry under test: CNC(=O)c1cc(Oc2ccc(NC(=O)Nc3ccc(Cl)c(C(F)(F)F)c3)cc2)ccn1 . Its kinase still bound, per cent of control was 100

Entry under test: COc1ccc(N(C(=O)Oc2c(C)cccc2C)c2ccnc(Nc3ccc(N4CCN(C)CC4)cc3)n2)c(OC)c1 . Its kinase still bound, per cent of control was 93

Entry under test: O=C1NC(=O)/C(=C/c2ccc3nccc(-c4ccncc4)c3c2)S1 . Its kinase still bound, per cent of control was 87

Entry under test: CS(=O)(=O)N1CCN(Cc2cc3nc(-c4cccc5[nH]ncc45)nc(N4CCOCC4)c3s2)CC1 . Its kinase still bound, per cent of control was 100

Entry under test: COCC(=O)NC/C=C/c1ccc2ncnc(Nc3ccc(Oc4ccc(C)nc4)c(C)c3)c2c1 . Its kinase still bound, per cent of control was 100

###

targetOfAssay: UniProtKB Q96BR1
Sequence (Q96BR1 whole entry, looked up): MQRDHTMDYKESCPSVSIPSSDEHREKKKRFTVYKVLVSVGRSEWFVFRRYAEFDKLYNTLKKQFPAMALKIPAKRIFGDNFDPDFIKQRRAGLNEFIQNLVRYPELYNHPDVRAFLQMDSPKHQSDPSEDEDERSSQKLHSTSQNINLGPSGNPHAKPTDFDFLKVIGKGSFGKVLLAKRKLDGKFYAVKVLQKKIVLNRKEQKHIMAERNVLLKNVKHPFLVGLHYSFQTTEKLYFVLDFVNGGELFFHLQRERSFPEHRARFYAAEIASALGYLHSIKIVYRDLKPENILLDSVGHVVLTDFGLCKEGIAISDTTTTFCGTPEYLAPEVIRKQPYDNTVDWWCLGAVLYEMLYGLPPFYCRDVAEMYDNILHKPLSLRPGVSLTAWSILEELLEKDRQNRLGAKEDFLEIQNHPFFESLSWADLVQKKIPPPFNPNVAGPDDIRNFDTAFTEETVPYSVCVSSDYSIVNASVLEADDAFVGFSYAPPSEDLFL
procedureSummary: KINOMEscan competition binding
statedConditions: compound 10.0 µM
outcomeMeasure: kinase still bound, per cent of control (%)
Unit % implied. Number only.

Entry under test: COc1cc2ncnc(-n3nc(-c4ccccn4)nc3N)c2cc1OC . Its kinase still bound, per cent of control was 74

Entry under test: C=CC(=O)Nc1cc(-n2c(=O)ccc3cnc4ccc(-c5cn[nH]c5)cc4c32)ccc1C . Its kinase still bound, per cent of control was 96

Entry under test: O=C(Nc1cccc(Nc2ncc(Br)c(NCCc3cnc[nH]3)n2)c1)N1CCCC1 . Its kinase still bound, per cent of control was 91

Entry under test: COCC(=O)NC/C=C/c1ccc2ncnc(Nc3ccc(Oc4ccc(C)nc4)c(C)c3)c2c1 . Its kinase still bound, per cent of control was 100

Entry under test: COc1ccc(N(C(=O)Oc2c(C)cccc2C)c2ccnc(Nc3ccc(N4CCN(C)CC4)cc3)n2)c(OC)c1 . Its kinase still bound, per cent of control was 100

Entry under test: O=c1cc(N2CCOCC2)oc2c(-c3cccc4c3sc3ccccc34)cccc12 . Its kinase still bound, per cent of control was 100

Entry under test: CCN1CCN(C(=O)Cc2ccc(Nc3ncc(F)c(Nc4ccc(C(=O)Nc5ccccc5Cl)cc4)n3)cc2)CC1 . Its kinase still bound, per cent of control was 100

Entry under test: N#CCNC(=O)c1ccc(-c2ccnc(Nc3ccc(N4CCOCC4)cc3)n2)cc1 . Its kinase still bound, per cent of control was 59

Entry under test: C[C@@H](Oc1cc(-c2cnn(C3CCNCC3)c2)cnc1N)c1c(Cl)ccc(F)c1Cl . Its kinase still bound, per cent of control was 100

Entry under test: CN(C)C/C=C/C(=O)Nc1ccc(C(=O)Nc2cccc(Nc3nccc(-c4cccnc4)n3)c2)cc1 . Its kinase still bound, per cent of control was 65

Entry under test: NC(=O)Nc1cc(-c2cccc(F)c2)sc1C(=O)N[C@@H]1CCCNC1 . Its kinase still bound, per cent of control was 27

Entry under test: COc1cc(C(=O)N2CCC(N3CCN(C)CC3)CC2)ccc1Nc1ncc2c(n1)N(C)c1ccccc1C(=O)N2C . Its kinase still bound, per cent of control was 95

Entry under test: COc1cc2ncn(-c3cc(OCc4ccccc4C(F)(F)F)c(C(N)=O)s3)c2cc1OC . Its kinase still bound, per cent of control was 83

Entry under test: CNC(=O)c1cc(Oc2ccc(NC(=O)Nc3ccc(Cl)c(C(F)(F)F)c3)cc2)ccn1 . Its kinase still bound, per cent of control was 82

###

targetOfAssay: MAP2K3 (human) (UniProt P46734)
Sequence (P46734 whole entry, looked up): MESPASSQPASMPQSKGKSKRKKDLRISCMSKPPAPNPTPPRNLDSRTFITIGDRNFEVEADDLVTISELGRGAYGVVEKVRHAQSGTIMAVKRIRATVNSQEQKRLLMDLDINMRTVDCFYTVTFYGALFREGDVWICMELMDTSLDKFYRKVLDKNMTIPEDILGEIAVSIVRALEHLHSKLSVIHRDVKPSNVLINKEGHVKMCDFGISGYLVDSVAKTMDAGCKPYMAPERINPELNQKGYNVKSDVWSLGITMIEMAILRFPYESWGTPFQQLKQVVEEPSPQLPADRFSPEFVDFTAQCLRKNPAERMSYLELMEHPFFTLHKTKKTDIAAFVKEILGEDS
procedureSummary: KINOMEscan competition binding
statedConditions: compound 10.0 µM
Kindly apply the following: criterion met if kinase still bound, per cent of control is less than 40%, criterion not met in every other case.

## Input Find out if reported kinase still bound, per cent of control for O=C1NC(=O)/C(=C/c2ccc3nccc(-c4ccncc4)c3c2)S1 is less than 40%
## Output criterion met

## Input Find out if reported kinase still bound, per cent of control for COc1cc2ncnc(-n3nc(-c4ccccn4)nc3N)c2cc1OC is less than 40%
## Output criterion met

## Input Find out if reported kinase still bound, per cent of control for COc1ccc(N(C(=O)Oc2c(C)cccc2C)c2ccnc(Nc3ccc(N4CCN(C)CC4)cc3)n2)c(OC)c1 is less than 40%
## Output criterion not met

## Input Find out if reported kinase still bound, per cent of control for COc1cc(N2CCN(C)CC2)ccc1Nc1ncc2c(n1)N(C)c1ccccc1C(=O)N2C is less than 40%
## Output criterion not met

## Input Find out if reported kinase still bound, per cent of control for COCC(=O)NC/C=C/c1ccc2ncnc(Nc3ccc(Oc4ccc(C)nc4)c(C)c3)c2c1 is less than 40%
## Output criterion not met

## Input Find out if reported kinase still bound, per cent of control for COc1cc(C(=O)N2CCC(N3CCN(C)CC3)CC2)ccc1Nc1ncc2c(n1)N(C)c1ccccc1C(=O)N2C is less than 40%
## Output criterion not met

## Input Find out if reported kinase still bound, per cent of control for O=c1cc(N2CCOCC2)oc2c(-c3cccc4c3sc3ccccc34)cccc12 is less than 40%
## Output criterion not met

## Input Find out if reported kinase still bound, per cent of control for C=CC(=O)Nc1cc(-n2c(=O)ccc3cnc4ccc(-c5cn[nH]c5)cc4c32)ccc1C is less than 40%
## Output criterion met

## Input Find out if reported kinase still bound, per cent of control for Cc1n[nH]c2ccc(-c3cncc(OC[C@@H](N)Cc4c[nH]c5ccccc45)c3)cc12 is less than 40%
## Output criterion met

## Input Find out if reported kinase still bound, per cent of control for COc1cc2ncn(-c3cc(OCc4ccccc4C(F)(F)F)c(C(N)=O)s3)c2cc1OC is less than 40%
## Output criterion not met

## Input Find out if reported kinase still bound, per cent of control for CS(=O)(=O)N1CCN(Cc2cc3nc(-c4cccc5[nH]ncc45)nc(N4CCOCC4)c3s2)CC1 is less than 40%
## Output criterion not met

## Input Find out if reported kinase still bound, per cent of control for CCN(CC)CCCCNc1ncc2cc(-c3cc(OC)cc(OC)c3)c(NC(=O)NC(C)(C)C)nc2n1 is less than 40%
## Output criterion not met

## Input Find out if reported kinase still bound, per cent of control for CNC(=O)c1ccc(Nc2cc(Nc3ccccc3S(=O)(=O)C(C)C)c3cc[nH]c3n2)nc1 is less than 40%
## Output criterion met
